This collection of values is drawn from patent US8562986B2.

- Test system: HUVEC
- assay overview: cells
- condition description: chemotherapeutic combined with Cilengitide
experimental endpoint: additive effect with Cilengitide

Below, each entry is followed by its recorded additive effect with Cilengitide result.
# compound, additive effect with Cilengitide
rows = [
    ("N[C@@H](Cc1ccc(N(CCCl)CCCl)cc1)C(=O)O", "yes"),
    ("O=c1[nH]cc(F)c(=O)[nH]1", "yes"),
    ("COc1cc([C@@H]2c3cc4c(cc3[C@@H](O[C@@H]3O[C@@H]5CO[C@@H](C)O[C@H]5[C@H](O)[C@H]3O)[C@H]3COC(=O)[C@H]23)OCO4)cc(OC)c1O [Etoposide]", "yes"),
    ("C[C@]12CC[C@@H]3c4ccc(OC(=O)N(CCCl)CCCl)cc4CC[C@H]3[C@@H]1CC[C@@H]2O", "no"),
    ("CC[C@@]1(O)C(=O)OCc2c1cc1n(c2=O)Cc2cc3ccccc3nc2-1", "yes"),
]

Hi! Can you tell me additive effect with Cilengitide for each of these compounds?
1. Cn1nnc2c(C(N)=O)ncn2c1=O [Temozolmide]
2. N.N.[Cl][Pt][Cl] [Cisplatinin]

**Result**
["no", "yes"]
